The measurements presented in this section are drawn from patent US4438107A.

Test system: Escherichia coli K-12 ML1410
protocol text: antibacterial spectrum, minimal inhibitory concentration
Assay type: cell-based
test context: K12ML1410
Below, each of the compounds is paired with its reported MIC value.
reported metric: MIC (µg/mL)

| compound | output unit | result number |
| --- | --- | --- |
| CC(N)C1CCC(N)C(OC2C(N)CC(O[C@H]3O[C@H](CO)[C@@H](O)[C@H](N)[C@H]3O)C(N(C)C(=O)CN)C2O)O1 (stereo partly drawn) [E] | µg/mL | 6.25 |
| CC(N)C1CCC(N)C(OC2C(N)CC(OCC(O)CO)C(N(C)C(=O)CN)C2O)O1 (stereo not drawn) [C] | µg/mL | 6.25 |
| CC(N)C1CCC(N)C(OC2C(N)CC(OCC(O)CN)C(N(C)C(=O)CN)C2O)O1 (stereo not drawn) [A] | µg/mL | 3.13 |
| CC(N)C1CCC(N)C(OC2C(N)CC(O[C@@H]3O[C@H](CO)[C@@H](O)[C@H](O)[C@H]3O)C(N(C)C(=O)CN)C2O)O1 (stereo partly drawn) [D] | µg/mL | 12.5 |
| COC1CC(N)C(OC2OC(C(C)N)CCC2N)C(O)C1N(C)C(=O)CN (stereo not drawn) [KA-6606 I, reference compound] | µg/mL | 3.13 |
| CC(N)C1CCC(N)C(OC2C(N)CC(OCC(O)CCN)C(N(C)C(=O)CN)C2O)O1 (stereo not drawn) [B] | µg/mL | 3.13 |

====

Tested on: Serratia marcescens
Property: MIC; scope: individual molecules
reported metric: MIC (µg/mL)

| molecule | output unit | result number |
| --- | --- | --- |
| CC(N)C1CCC(N)C(OC2C(N)CC(O[C@H]3O[C@H](CO)[C@@H](O)[C@H](N)[C@H]3O)C(N(C)C(=O)CN)C2O)O1 (stereo partly drawn) | µg/mL | 1.56 |
| CC(N)C1CCC(N)C(OC2C(N)CC(OCC(O)CCN)C(N(C)C(=O)CN)C2O)O1 (stereo not drawn) | µg/mL | 1.56 |
| CC(N)C1CCC(N)C(OC2C(N)CC(OCC(O)CO)C(N(C)C(=O)CN)C2O)O1 (stereo not drawn) | µg/mL | 3.13 |
| CC(N)C1CCC(N)C(OC2C(N)CC(O[C@@H]3O[C@H](CO)[C@@H](O)[C@H](O)[C@H]3O)C(N(C)C(=O)CN)C2O)O1 (stereo partly drawn) | µg/mL | 3.13 |
| COC1CC(N)C(OC2OC(C(C)N)CCC2N)C(O)C1N(C)C(=O)CN (stereo not drawn) [KA-6606 I, reference compound] | µg/mL | 3.13 |
| CC(N)C1CCC(N)C(OC2C(N)CC(OCC(O)CN)C(N(C)C(=O)CN)C2O)O1 (stereo not drawn) | µg/mL | 1.56 |

====

Test system: Staphylococcus aureus 209P JC-1
protocol text: antibacterial spectrum, minimal inhibitory concentration
Type: cell-based
Here, each record is paired with measured MIC data.
reported metric: MIC

| compound | study target | result |
| --- | --- | --- |
| CC(N)C1CCC(N)C(OC2C(N)CC(OCC(O)CCN)C(N(C)C(=O)CN)C2O)O1 (stereo not drawn) | Staphylococcus aureus 209P JC-1 | 0.39 µg/mL |
| CC(N)C1CCC(N)C(OC2C(N)CC(OCC(O)CO)C(N(C)C(=O)CN)C2O)O1 (stereo not drawn) | Staphylococcus aureus 209P JC-1 | 0.39 µg/mL |
| CC(N)C1CCC(N)C(OC2C(N)CC(O[C@@H]3O[C@H](CO)[C@@H](O)[C@H](O)[C@H]3O)C(N(C)C(=O)CN)C2O)O1 (stereo partly drawn) | Staphylococcus aureus 209P JC-1 | 0.78 µg/mL |
| COC1CC(N)C(OC2OC(C(C)N)CCC2N)C(O)C1N(C)C(=O)CN (stereo not drawn) [KA-6606 I, reference compound] | Staphylococcus aureus 209P JC-1 | 0.39 µg/mL |
| CC(N)C1CCC(N)C(OC2C(N)CC(O[C@H]3O[C@H](CO)[C@@H](O)[C@H](N)[C@H]3O)C(N(C)C(=O)CN)C2O)O1 (stereo partly drawn) | Staphylococcus aureus 209P JC-1 | 0.39 µg/mL |
| CC(N)C1CCC(N)C(OC2C(N)CC(OCC(O)CN)C(N(C)C(=O)CN)C2O)O1 (stereo not drawn) | Staphylococcus aureus 209P JC-1 | 0.39 µg/mL |

====

Below: a set of entries, each annotated with reported MIC.
System: Escherichia coli JR88/W677
protocol text: antibacterial spectrum, minimal inhibitory concentration
Assay type: cell-based
test context: resistance mechanism AAC(3)I

| compound | study target | relation sign | MIC [µg/mL] |
| --- | --- | --- | --- |
| CC(N)C1CCC(N)C(OC2C(N)CC(OCC(O)CO)C(N(C)C(=O)CN)C2O)O1 (stereo not drawn) [C] | Escherichia coli JR88/W677 | = | 6.25 |
| CC(N)C1CCC(N)C(OC2C(N)CC(O[C@H]3O[C@H](CO)[C@@H](O)[C@H](N)[C@H]3O)C(N(C)C(=O)CN)C2O)O1 (stereo partly drawn) [E] | Escherichia coli JR88/W677 | = | 1.56 |
| COC1CC(N)C(OC2OC(C(C)N)CCC2N)C(O)C1N(C)C(=O)CN (stereo not drawn) [KA-6606 I, reference compound] | Escherichia coli JR88/W677 | > | 100 |
| CC(N)C1CCC(N)C(OC2C(N)CC(OCC(O)CCN)C(N(C)C(=O)CN)C2O)O1 (stereo not drawn) [B] | Escherichia coli JR88/W677 | = | 3.13 |
| CC(N)C1CCC(N)C(OC2C(N)CC(OCC(O)CN)C(N(C)C(=O)CN)C2O)O1 (stereo not drawn) [A] | Escherichia coli JR88/W677 | = | 6.25 |
| CC(N)C1CCC(N)C(OC2C(N)CC(O[C@@H]3O[C@H](CO)[C@@H](O)[C@H](O)[C@H]3O)C(N(C)C(=O)CN)C2O)O1 (stereo partly drawn) [D] | Escherichia coli JR88/W677 | = | 3.13 |

====

Measured MIC (Bacillus subtilis ATCC 6633)

| molecule | MIC |
| --- | --- |
| CC(N)C1CCC(N)C(OC2C(N)CC(O[C@@H]3O[C@H](CO)[C@@H](O)[C@H](O)[C@H]3O)C(N(C)C(=O)CN)C2O)O1 (stereo partly drawn) | 0.39 µg/mL |
| CC(N)C1CCC(N)C(OC2C(N)CC(OCC(O)CO)C(N(C)C(=O)CN)C2O)O1 (stereo not drawn) | 0.2 µg/mL |
| CC(N)C1CCC(N)C(OC2C(N)CC(O[C@H]3O[C@H](CO)[C@@H](O)[C@H](N)[C@H]3O)C(N(C)C(=O)CN)C2O)O1 (stereo partly drawn) | 0.2 µg/mL |
| COC1CC(N)C(OC2OC(C(C)N)CCC2N)C(O)C1N(C)C(=O)CN (stereo not drawn) [KA-6606 I, reference compound] | 0.2 µg/mL |
| CC(N)C1CCC(N)C(OC2C(N)CC(OCC(O)CN)C(N(C)C(=O)CN)C2O)O1 (stereo not drawn) | 0.2 µg/mL |
| CC(N)C1CCC(N)C(OC2C(N)CC(OCC(O)CCN)C(N(C)C(=O)CN)C2O)O1 (stereo not drawn) | ≤ 0.1 µg/mL |

====

The entries below come with measured MIC values attached.
Tested on: Bacillus cereus

| molecule | MIC / µg/mL |
| --- | --- |
| COC1CC(N)C(OC2OC(C(C)N)CCC2N)C(O)C1N(C)C(=O)CN (stereo not drawn) [KA-6606 I, reference compound] | 1.56 |
| CC(N)C1CCC(N)C(OC2C(N)CC(OCC(O)CO)C(N(C)C(=O)CN)C2O)O1 (stereo not drawn) | 3.13 |
| CC(N)C1CCC(N)C(OC2C(N)CC(O[C@H]3O[C@H](CO)[C@@H](O)[C@H](N)[C@H]3O)C(N(C)C(=O)CN)C2O)O1 (stereo partly drawn) | 0.78 |
| CC(N)C1CCC(N)C(OC2C(N)CC(OCC(O)CCN)C(N(C)C(=O)CN)C2O)O1 (stereo not drawn) | 1.56 |
| CC(N)C1CCC(N)C(OC2C(N)CC(OCC(O)CN)C(N(C)C(=O)CN)C2O)O1 (stereo not drawn) | 0.78 |
| CC(N)C1CCC(N)C(OC2C(N)CC(O[C@@H]3O[C@H](CO)[C@@H](O)[C@H](O)[C@H]3O)C(N(C)C(=O)CN)C2O)O1 (stereo partly drawn) | 6.25 |

====

System: Pseudomonas aeruginosa No. 99
protocol text: antibacterial spectrum, minimal inhibitory concentration
Assay type: cell-based
test context: Pseudomonas aeruginosa No. 99; resistance mechanism AAC(3)I; read-out: Minimal inhibitory concentration
Each item that follows carries a reported MIC.
reported metric: MIC

| compound | reported metric | result |
| --- | --- | --- |
| COC1CC(N)C(OC2OC(C(C)N)CCC2N)C(O)C1N(C)C(=O)CN (stereo not shown) [KA-6606 I, reference compound] | MIC | > 100 mg/L |
| CC(N)C1CCC(N)C(OC2C(N)CC(OCC(O)CO)C(N(C)C(=O)CN)C2O)O1 (stereo not shown) | MIC | 25 mg/L |
| CC(N)C1CCC(N)C(OC2C(N)CC(O[C@@H]3O[C@H](CO)[C@@H](O)[C@H](O)[C@H]3O)C(N(C)C(=O)CN)C2O)O1 (stereo partly shown) | MIC | 25 mg/L |
| CC(N)C1CCC(N)C(OC2C(N)CC(O[C@H]3O[C@H](CO)[C@@H](O)[C@H](N)[C@H]3O)C(N(C)C(=O)CN)C2O)O1 (stereo partly shown) | MIC | 12.5 mg/L |
